All figures here come from PubChem BioAssay.

assay comment: compound binding in COS7 lysate, probe aLAP1, primary screen, cell lysate, small-molecule microarray (AID 1124);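 also: lysate comes from COS7 cells expressing LAP1 and is applied at 0.3 µg/mL; score merges spot fluorescence near 667 nm with signal-to-noise over triplicate slides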
measurement context: probe aLAP1, fluorescence, higher = more signal
experimental endpoint: composite z-score
# respond with the number and nothing more

Answered cases to consult:
Query COC(=O)[C@H](Cc1ccccc1)N1CC(C)(OC)O[C@@H](Cc2ccccc2)[C@H]1/C=C/C1CC1 (stereo partly drawn) yields composite z-score of 0.106

Query CC(CO)N1C(=O)[C@@H]2[C@H]3C(=O)OCC=C[C@H]3OC23C=CCN(c2ccc4ccccc4c2)C(=O)[C@@H]13 (stereo partly drawn) yields composite z-score of -0.139

Entry CCCCN1CC=CC23O[C@@H]4/C=C\CCCOC(=O)C4[C@H]2C(=O)N(CCCCCCO)[C@@H]3C1=O (stereo partly drawn) — recorded composite z-score = 1.17

Memo: `Cc1ccc(S(=O)(=O)N2[C@@H](c3ccccc3)C(C(=O)O)=CC[C@H]2c2ccc(F)cc2)cc1` , reported composite z-score: 1.72

---
Input `Cc1c(NC(=O)/C(C#N)=C/C=C/c2ccc([N+](=O)[O-])cc2)c(=O)n(-c2ccccc2)n1C` . Output composite z-score: 0.82

Summary for this compound, COC(=O)c1ccc(OC)c(/C=C\CC(OC(=O)c2ccncc2)c2ccccc2)c1 (stereo not drawn) : composite z-score is -0.304

Data point: `O=C1c2ccccc2[C@@]2(Cc3ccccc3N(CC(F)(F)F)C2=O)[C@H](c2ccc(CO)cc2)N1Cc1ccccc1` ; composite z-score = 0.0163

The measured composite z-score associated with `CCOC(=O)C=C1C[C@@H](c2cccc([N+](=O)[O-])c2)O[C@@H](c2cccc([N+](=O)[O-])c2)O1` reads 0.863

---

assay comment: inhibitors of hydroxyurea-induced Chk1 phosphorylation, primary screen, imaging, HeLa, phospho-Chk1 antibody, percent positive cells (AID 1186)
measurement context: hydroxyurea-induced phospho-Chk1 immunofluorescence imaging, higher = more signal
experimental endpoint: z-score
Lab note: record the figure alone, no unit after it.

// below: answered compounds
Looking up `CCOC(=O)C[C@H]1[C@H](OC(=O)c2ccc(-c3ccccc3)cc2)[C@@H](NC(=O)c2ccc(-c3ccccc3)cc2)c2cc(OCCCO)ccc2N1C(=O)c1ccccc1` , I found its z-score recorded as -0.166

Looking up `C=CC[C@]1(C(N)=O)N=C(c2ccc(OCCCO)cc2)O[C@H]1c1ccccc1N=[N+]=[N-]` , I see its z-score listed as -0.37

Below: the item to evaluate.
For reference, reported z-score for `COCCOC(=O)N1C(=O)[C@@]2(c3cc(C#CCC(C(=O)OC)C(=O)OC)ccc31)[C@H](C(N)=O)[C@H]1C(=O)O[C@H](c3ccccc3)[C@H](c3ccccc3)N1[C@@H]2c1ccccc1OCCO` stands at -0.663

---

assay comment: COS7 lysate on small-molecule microarray, probe aHis, 635 nm (AID 1123);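 also: z-score combines 667nm fluorescence intensity with signal-to-noise per printed compound spot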
measurement context: COS7 cell lysate, fluorescence, higher = more signal
experimental endpoint: composite z-score

Value of composite z-score reported for the compound `COc1ccc(C(=O)Nc2ccc(CN3C(=O)[C@]4(O[C@H](CC(=O)N(CCO)Cc5ccccc5)[C@@H]([Si](C)(C)c5ccc(OC)cc5)[C@@H]4C)c4ccccc43)cc2)cc1` is 1.58

Documented composite z-score of CCCCCCCCCCC(O)C1C=CC2C(=O)N(C)C(=O)C2N1Nc1ccccc1 (configuration not stated) : 0.907

GET /value?item= CCCCN1CC=CC23O[C@@H]4/C=C\CCCOC(=O)C4[C@H]2C(=O)N(CCCCCCO)[C@@H]3C1=O (some centres not stated) &field=composite z-score returns 1.66

Per the records, this compound ( `C=CC[C@]1(C(N)=O)N=C(c2ccc(OCCCO)cc2)O[C@H]1c1ccccc1N=[N+]=[N-]` ) has composite z-score equal to 2.53

composite z-score in this record for `C=CCNC(=O)[C@@H]1[C@H]2C(=O)O[C@H](c3ccccc3)[C@H](c3ccccc3)N2[C@H](c2ccc(OCCO)cc2)[C@@]12C(=O)N(C(=O)OCCOC)c1ccccc12` : 2.37

What the record says about `COc1c(C)cc(-c2cc3c(c(CCc4ccccc4)n2)[Si](C(C)C)(C(C)C)O[C@H]3c2ccccc2)cc1C` : composite z-score is 0.463

Form: compound = COc1cc(CO)cc(I)c1O[C@H]1C=C(C(=O)NCCO)C[C@@H](N(CCN2CCOCC2)C(=O)C2CCCO2)[C@@H]1O (some centres not stated) ; composite z-score = -0.61
